# target_or_test_system: F508delCFTR (Homo sapiens, UniProt P13569, DEL508-508)
# Construct: expressed in transfected cells; host or cells: CFBE41o- human lung derived epithelial cells (CFBE41o-F508delCFTR-HRP), doxycycline-inducible
# Sequence (P13569 with tags, fused parts or gaps DEL508-508): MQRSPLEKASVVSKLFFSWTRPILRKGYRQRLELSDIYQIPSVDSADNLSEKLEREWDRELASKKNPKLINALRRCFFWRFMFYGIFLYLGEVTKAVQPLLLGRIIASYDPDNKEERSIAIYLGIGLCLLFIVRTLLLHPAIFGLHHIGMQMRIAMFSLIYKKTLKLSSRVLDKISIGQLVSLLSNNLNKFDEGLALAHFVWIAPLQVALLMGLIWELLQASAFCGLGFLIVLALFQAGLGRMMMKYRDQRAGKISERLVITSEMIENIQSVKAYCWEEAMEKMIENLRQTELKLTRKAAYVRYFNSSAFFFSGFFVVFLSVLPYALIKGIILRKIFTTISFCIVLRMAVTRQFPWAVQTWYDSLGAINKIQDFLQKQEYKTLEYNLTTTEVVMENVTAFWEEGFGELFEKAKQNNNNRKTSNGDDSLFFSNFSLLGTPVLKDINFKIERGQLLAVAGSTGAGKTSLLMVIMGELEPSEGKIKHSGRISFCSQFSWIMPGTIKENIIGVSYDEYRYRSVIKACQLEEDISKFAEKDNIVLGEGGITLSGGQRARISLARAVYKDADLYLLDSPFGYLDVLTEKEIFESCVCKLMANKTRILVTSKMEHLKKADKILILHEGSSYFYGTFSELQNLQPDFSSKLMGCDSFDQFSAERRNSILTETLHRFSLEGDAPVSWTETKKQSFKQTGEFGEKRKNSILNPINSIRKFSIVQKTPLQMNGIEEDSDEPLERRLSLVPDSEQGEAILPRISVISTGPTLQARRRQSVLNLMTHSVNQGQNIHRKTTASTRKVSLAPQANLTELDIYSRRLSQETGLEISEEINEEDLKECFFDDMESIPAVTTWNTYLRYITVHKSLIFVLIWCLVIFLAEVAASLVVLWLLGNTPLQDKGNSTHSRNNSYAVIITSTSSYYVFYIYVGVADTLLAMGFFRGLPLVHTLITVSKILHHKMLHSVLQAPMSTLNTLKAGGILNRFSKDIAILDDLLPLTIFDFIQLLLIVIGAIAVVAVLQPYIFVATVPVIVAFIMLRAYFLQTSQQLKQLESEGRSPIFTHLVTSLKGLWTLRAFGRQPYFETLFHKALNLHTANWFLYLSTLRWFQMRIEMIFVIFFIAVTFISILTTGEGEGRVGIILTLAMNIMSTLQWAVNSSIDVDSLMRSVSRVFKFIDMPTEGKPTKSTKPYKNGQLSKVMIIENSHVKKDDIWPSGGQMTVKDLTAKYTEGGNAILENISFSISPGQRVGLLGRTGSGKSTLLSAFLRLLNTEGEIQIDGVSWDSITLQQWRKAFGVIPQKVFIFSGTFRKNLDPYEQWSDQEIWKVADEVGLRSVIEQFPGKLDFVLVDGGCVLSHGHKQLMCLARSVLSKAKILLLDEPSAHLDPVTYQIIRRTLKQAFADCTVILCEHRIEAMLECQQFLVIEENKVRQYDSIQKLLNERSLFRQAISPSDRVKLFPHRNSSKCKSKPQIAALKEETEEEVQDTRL
# assay_explanation: Cell Surface Expression-Horse Radish Peroxidase (CSE-HRP) Assay
# Type: cell-based
# stated_conditions: with co-corrector; maximum at any tested concentration
assay_endpoint: Maximum % activity (with co-corrector)

Previously resolved entries follow.
- O=C(NS(=O)(=O)c1cccc2c1CCCN2)C1(c2ccc(C(F)(F)F)nc2C2CC2)CC1 [Example GI-6]: +++ (≥350)
- COc1ncc(C2CCC2)c(C)c1C1(C(=O)NS(=O)(=O)c2cccc3cnn(C)c23)CC1 [II-43]: +++ (≥350)
- Cc1ccc2c(S(=O)(=O)NC(=O)C3(c4cc(C5CCC5)ncc4OC(C)C)CC3)cccc2n1 [Example GI-26]: +++ (≥350)
- COc1cc(F)c(C(C)C)cc1C1(C(=O)NS(=O)(=O)c2cccc3c2CCCN3)CC1 [II-27]: +++ (≥350)
- CC(C)Oc1ncc(C2CCC2)cc1C1(C(=O)NS(=O)(=O)c2cccc3[nH]ccc23)CC1 [Example GI-24]: +++ (≥350)
- Cc1ccc(OC(C)C)c(C2(C(=O)NS(=O)(=O)c3cccc4[nH]ccc34)CC2)c1 [II-79]: +++ (≥350)
- CCOc1cccc(OC)c1C1(C(=O)NS(=O)(=O)c2cccc3ncccc23)CC1 [Example I-45]: +++ (≥350)
- COC[C@H](C)Oc1ccc(C)cc1C1(C(=O)NS(=O)(=O)c2cccc3nc(C)ccc23)CC1 [II-104]: +++ (≥350)

The recorded Maximum % activity (with co-corrector) for entry CCOC(C)(C)c1ccc(OC(F)F)c(C2(C(=O)NS(=O)(=O)c3cccc4nc(C)ccc34)CC2)c1 [II-107] equals +++ (≥350)

Form: compound = CCc1cccc(OC)c1C1(C(=O)NS(=O)(=O)c2cccc3nc(C)ccc23)CC1 [Example III-133] ; Maximum % activity (with co-corrector) = +++ (≥350)

Recorded result, Cc1ccc(C2(C(=O)NS(=O)(=O)c3ccccc3)CC2)cc1 [Example III-29] , Maximum % activity (with co-corrector): ++ (≥150 and <350)

Entry Cc1ccccc1S(=O)(=O)NC(=O)C1(c2ccc3c(c2)OCO3)CC1 [Example III-86] — recorded Maximum % activity (with co-corrector) = ++ (≥150 and <350)

Entry under test: COc1cccc(C)c1C1(C(=O)NS(=O)(=O)c2cccc3c2ccn3C)CC1 [Example III-102] . Its Maximum % activity (with co-corrector) was +++ (≥350)

* * *

# target_or_test_system: F508delCFTR (Homo sapiens, UniProt P13569, DEL508-508)
# Construct: expressed in transfected cells; host or cells: CFBE41o- human lung derived epithelial cells (CFBE41o-F508delCFTR-HRP), doxycycline-inducible
# assay_explanation: Cell Surface Expression-Horse Radish Peroxidase (CSE-HRP) Assay
# Format: cell-based
# stated_conditions: test compound without co-corrector; read-out: EC50 (without co-corrector)
pEC50: −log10 of the molar value.
assay_endpoint: pEC50

Solved cases below.
- Cc1cnc(OCC(C)C)c(C2(C(=O)NS(=O)(=O)c3cccc4nc(C)ccc34)CC2)c1: > 5.52
- Cc1ccc(C2(C(=O)NS(=O)(=O)c3cccc4ncccc34)CC2)c(OC(C)C)n1: > 5.52
- CCc1cnc(N2CCOCC2)c(C2(C(=O)NS(=O)(=O)c3cccc4ncccc34)CC2)c1: < 5.00
- Cc1cnc(OCC(C)C)c(C2(C(=O)NS(=O)(=O)c3cccc4ncccc34)CC2)c1: > 5.52
- Cc1ccc2c(S(=O)(=O)NC(=O)C3(c4cc(C5CCC5)cnc4N4CCN(C)CC4)CC3)cccc2n1: < 5.00

pEC50 value, target or system F508delCFTR (Homo sapiens, UniProt P13569, DEL508-508), for CC(C)Oc1cnc(OC(C)C)c(C2(C(=O)NS(=O)(=O)c3cccc4ncccc34)CC2)c1 : > 5.52

Tested on F508delCFTR (Homo sapiens, UniProt P13569, DEL508-508), the item CC(C)Oc1ncc(CO)cc1C1(C(=O)NS(=O)(=O)c2cccc3ncccc23)CC1 showed pEC50 equal to < 5.00

The reported pEC50 value, F508delCFTR (Homo sapiens, UniProt P13569, DEL508-508), for Cc1ccc2c(S(=O)(=O)NC(=O)C3(c4cc(Cl)cnc4N4CCCC4)CC3)cccc2n1 reads 5.00 to 5.52

* * *

# target_or_test_system: F508delCFTR (Homo sapiens, UniProt P13569, DEL508-508)
# Construct: expressed in transfected cells; host or cells: CFBE41o- human lung derived epithelial cells (CFBE41o-F508delCFTR-HRP), doxycycline-inducible
# assay_explanation: Cell Surface Expression-Horse Radish Peroxidase (CSE-HRP) Assay
# Assay type: cell-based
# stated_conditions: with co-corrector; maximum at any tested concentration
assay_endpoint: Maximum % activity (with co-corrector)

• CNC1(c2ccc(OC)c(C3(C(=O)NS(=O)(=O)c4cccc5ncccc45)CC3)c2)CC1 = ++ (≥150 and <350)
• O=C(NS(=O)(=O)c1cccc(Cl)c1)C1(c2ccc(Cl)cc2Cl)CC1 = ++ (≥150 and <350)
• COc1ccc(C2CCC2)cc1C1(C(=O)NS(=O)(=O)c2cccc3ncn(C)c23)CCC1 = +++ (≥350)
• COc1ccc(OC2CCC2)cc1C1(C(=O)NS(=O)(=O)c2cccc3ncccc23)CC1 = +++ (≥350)
• COc1ncc(C(F)(F)F)cc1C1(C(=O)NS(=O)(=O)c2cccc3ncccc23)CC1 = +++ (≥350)
• CCc1cnc(OC(C)C)c(C2(C(=O)NS(=O)(=O)c3cccc4c3CCCN4)CC2)c1 = +++ (≥350)
• COc1cc(C2(C(=O)NS(=O)(=O)c3cccc4ccccc34)CC2)ccc1C = +++ (≥350)
• CC1(C)CC1(C(=O)NS(=O)(=O)c1ccccc1)c1ccccc1 (stereo not drawn) = ++ (≥150 and <350)
• O=C(NS(=O)(=O)c1ccc2ccccc2c1)C1(c2ccc(Cl)cc2Cl)CC1 = + (<150)
• O=C(NS(=O)(=O)c1ccccc1)C1(c2ccccc2F)CC1 = ++ (≥150 and <350)

Sure, the documented Maximum % activity (with co-corrector) for COc1ncc(Cl)cc1C1(C(=O)NS(=O)(=O)c2cccc3ccccc23)CC1 is +++ (≥350)

Looking up COc1ncc(C(F)(F)F)cc1C1(C(=O)NS(=O)(=O)c2cccc3c2ccn3C)CC1 , I see its Maximum % activity (with co-corrector) listed as +++ (≥350)

# compound Cc1ccc(S(=O)(=O)NC(=O)C2(c3ccc(Cl)cc3Cl)CC2)cc1 ; its Maximum % activity (with co-corrector) = ++ (≥150 and <350)

Entry CCOc1ccc(C(C)(C)COC)cc1C1(C(=O)NS(=O)(=O)c2cccc3ncccc23)CC1 — recorded Maximum % activity (with co-corrector) = +++ (≥350)

The measured Maximum % activity (with co-corrector) associated with COc1ncc(C2CCC2)cc1C1(C(=O)NS(=O)(=O)c2cccc3ncc(C)n23)CC1 reads +++ (≥350)

* * *

# target_or_test_system: F508delCFTR (Homo sapiens, UniProt P13569, DEL508-508)
# Construct: expressed in transfected cells; host or cells: CFBE41o- human lung derived epithelial cells (CFBE41o-F508delCFTR-HRP), doxycycline-inducible
# assay_explanation: Cell Surface Expression-Horse Radish Peroxidase (CSE-HRP) Assay;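 on EC50 (with co-corrector): co-corrector chromenyl benzoic acid corrector at 2 or 3 µM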
# Type: cell-based
# stated_conditions: test compound with co-corrector; read-out: EC50 (with co-corrector)
pEC50: −log10 of the molar value.
assay_endpoint: pEC50

Example entries begin here.
* Cc1ccc2c(S(=O)(=O)NC(=O)C3(c4nc(OCC(C)C)ccc4OC(C)C)CC3)cccc2n1 [Example GI-90] | > 5.52
* COCC1CCN(c2ncc(C3CCC3)cc2C2(C(=O)NS(=O)(=O)c3cccc4ncccc34)CC2)CC1 [Example GI-121] | > 5.52
* O=C(NS(=O)(=O)c1cccc2ncccc12)C1(c2ccc(C(F)(F)F)nc2C2CCC2)CC1 [GII-14] | 5.00 to 5.52

Note to self: pEC50 recorded for CCc1cnc(N2CCC(COC)CC2)c(C2(C(=O)NS(=O)(=O)c3cccc4[nH]ccc34)CC2)c1 [Example GI-120] was > 5.52

Field pEC50 (entry CC(C)Oc1ncc(N(C)C)cc1C1(C(=O)NS(=O)(=O)c2cccc3[nH]ccc23)CC1 [Example GI-73] ) reads > 5.52

Recorded pEC50 (compound CCc1cnc(N2CCC(OC)CC2)c(C2(C(=O)NS(=O)(=O)c3cccc4ncccc34)CC2)c1 [GII-57] ): 5.00 to 5.52

Please fill in: pEC50 reported for CCc1cnc(N2CCC(OC(C)C)CC2)c(C2(C(=O)NS(=O)(=O)c3cccc4nc(C)ccc34)CC2)c1 [GII-55] = 5.00 to 5.52

Cc1ccc2c(S(=O)(=O)NC(=O)C3(c4cc(Cl)cnc4N4CCCC4)CC3)cccc2n1 [Example GI-36] yielded pEC50 of > 5.52

// sample Cc1cnc(OCC(C)C)c(C2(C(=O)NS(=O)(=O)c3cccc4nc(C)ccc34)CC2)c1 [Example GI-43] , its pEC50 was > 5.52

Kindly note the recorded pEC50 for O=C(NS(=O)(=O)c1cccc2ncccc12)C1(c2cc(Cl)cnc2N2CCCC2)CC1 [Example GI-35] , which is > 5.52

Consider COCCOc1ncc(C2CCC2)cc1C1(C(=O)NS(=O)(=O)c2cccc3[nH]ccc23)CC1 [Example GI-99] . Its measured pEC50 is > 5.52

// recorded pEC50 for CC(C)COc1ncc(C2CC2)cc1C1(C(=O)NS(=O)(=O)c2cccc3[nH]ccc23)CC1 [Example GI-50] : > 5.52
